- TEST SYSTEM: Estrogen receptor (Homo sapiens) + Estrogen receptor beta (Homo sapiens) (UniProt P03372+Q92731)
- Sequence (P03372 whole entry, looked up, the tested form may be a part): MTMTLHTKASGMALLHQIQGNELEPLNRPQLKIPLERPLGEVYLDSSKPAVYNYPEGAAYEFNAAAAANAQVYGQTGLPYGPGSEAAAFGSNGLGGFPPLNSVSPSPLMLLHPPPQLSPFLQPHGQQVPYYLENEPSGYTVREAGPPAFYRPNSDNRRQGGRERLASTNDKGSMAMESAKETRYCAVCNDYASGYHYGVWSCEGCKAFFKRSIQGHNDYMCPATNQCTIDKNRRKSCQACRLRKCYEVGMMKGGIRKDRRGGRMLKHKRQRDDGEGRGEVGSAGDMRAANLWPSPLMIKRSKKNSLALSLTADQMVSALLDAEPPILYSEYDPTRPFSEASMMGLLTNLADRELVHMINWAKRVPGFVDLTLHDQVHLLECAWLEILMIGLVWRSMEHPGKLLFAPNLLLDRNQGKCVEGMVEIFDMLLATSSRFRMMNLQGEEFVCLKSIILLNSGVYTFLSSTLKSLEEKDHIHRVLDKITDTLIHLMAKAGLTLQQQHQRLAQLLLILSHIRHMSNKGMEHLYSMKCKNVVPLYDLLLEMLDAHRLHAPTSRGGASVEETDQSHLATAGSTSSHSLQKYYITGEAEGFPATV
- Sequence (Q92731 whole entry, looked up, the tested form may be a part): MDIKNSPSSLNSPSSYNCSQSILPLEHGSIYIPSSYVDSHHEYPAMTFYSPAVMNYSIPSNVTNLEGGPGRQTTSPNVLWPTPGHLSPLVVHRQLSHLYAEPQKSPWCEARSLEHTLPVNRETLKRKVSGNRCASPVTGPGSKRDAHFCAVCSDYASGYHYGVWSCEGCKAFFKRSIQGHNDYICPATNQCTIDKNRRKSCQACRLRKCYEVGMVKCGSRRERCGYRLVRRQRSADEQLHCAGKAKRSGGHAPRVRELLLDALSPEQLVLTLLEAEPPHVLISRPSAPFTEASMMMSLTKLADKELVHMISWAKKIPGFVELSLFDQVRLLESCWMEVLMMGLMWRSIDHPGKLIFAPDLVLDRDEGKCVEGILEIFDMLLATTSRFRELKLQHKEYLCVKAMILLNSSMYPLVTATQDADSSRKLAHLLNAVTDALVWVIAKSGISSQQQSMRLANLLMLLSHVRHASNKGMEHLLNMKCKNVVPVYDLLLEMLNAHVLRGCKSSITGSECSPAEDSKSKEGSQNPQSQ
- PROTOCOL DESCRIPTION: OT_ER_ERaERb_1440: Odyssey Thera (OT) 24-hour HEK293T Protein-Complementation Assay for Estrogen Receptor-alpha/-beta Homodimer (AID 2283356);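 note: heteromer of ER alpha and ER beta binding domains; hits raise reporter fluorescence and both agonists and antagonists give an increase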
- Protocol: OT_ER_ERaERb_1440 is a cell-based assay that uses HEK293T, a human kidney cell line, with measurements taken at 24 hours after chemical dosing in a 384-well plate.OT_ER_ERaERb_1440 is one of one assay component(s) measured or calculated from the OT_ER_ERaERb_1440 assay. […] This assay endpoint, OT_ER_ERaERb_1440, was analyzed in the positive analysis fitting direction relative to DMSO as the negative control and baseline of activity. […]
Results filed as inconclusive are left out. Activity calls are given as the source filed them. Rule for the calls: active = hit-call score of the fitted dose curve at least 0.9, where 1 is the maximum; inconclusive = response in the unintended direction; inactive = score below 0.9.
Would you mind answering with one of these outcomes? active, inactive

Answered examples (3):
[
  {
    "COMPOUND": "COCCOCCC[Si](C)(O[Si](C)(C)C)O[Si](C)(C)C",
    "QUALITATIVE LABEL": "active"
  },
  {
    "COMPOUND": "CCCCCCCC/C=C\\CCCCCCCC(=O)N(C)CC(=O)O",
    "QUALITATIVE LABEL": "inactive"
  },
  {
    "COMPOUND": "CCOC(=O)C1CC(=O)C(=C(O)C2CC2)C(=O)C1 (centres undefined)",
    "QUALITATIVE LABEL": "inactive"
  }
]

Incoming: Could you please tell me the result logged for "O=C1C=CC(=O)N1c1ccccc1" in this assay?
Outgoing: inactive

Incoming: Now give it for "CCOC(OCC)OCC" too.
Outgoing: inactive

Incoming: Could you do the same for "CCCCCCCCCc1ccc(OCCO)cc1" , please?
Outgoing: active

Incoming: Would you mind doing "CCN=c1cc2oc3cc(NCC)c(C)cc3c(-c3ccccc3C(=O)OCC)c-2cc1C" as well?
Outgoing: inactive

Incoming: Query "CCCCCCCCCCCCCC[P+](CCCC)(CCCC)CCCC" next
Outgoing: inactive

Incoming: How about this compound: CCCCCCCC/C=C\CCCCCCCC(=O)OCC(O)CO (centres undefined)
Outgoing: inactive
